# Tgt: T1, human CD19 exon1-3-His tag protein (human, UniProt P15391 20-186, limits assumed)
# T1 construct: membrane-distal part of the extracellular region, made in HEK293E cells; not shown: His tag
# T1 sequence (looked up): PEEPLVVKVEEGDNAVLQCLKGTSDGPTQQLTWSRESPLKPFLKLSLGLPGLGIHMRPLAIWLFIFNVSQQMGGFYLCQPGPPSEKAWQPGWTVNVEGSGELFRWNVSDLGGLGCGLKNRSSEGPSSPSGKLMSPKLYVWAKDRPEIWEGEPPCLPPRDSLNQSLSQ
# Test details: ELISA, coated human CD19 exon 1-3-His
Entries and their measured OD450 at 0.001 nM follow.
Please give a number only; it is taken to be in OD450.

Binder	Unit string	OD450 at 0.001 nM
F3.121.4-L1H1 (antibody, mouse IgG1, kappa, V domains shown, humanized antibody of F3.121.4, VL1+VH1, murine IgG1 constant regions) VH: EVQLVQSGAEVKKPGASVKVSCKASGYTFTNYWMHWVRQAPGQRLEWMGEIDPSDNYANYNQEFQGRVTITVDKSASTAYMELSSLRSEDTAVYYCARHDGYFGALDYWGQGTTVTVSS VL: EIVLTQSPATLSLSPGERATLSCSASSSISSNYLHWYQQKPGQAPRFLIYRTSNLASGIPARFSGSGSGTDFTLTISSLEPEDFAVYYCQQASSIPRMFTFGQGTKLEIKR	OD450	0.06
F3.121.4-L3H2 (antibody, mouse IgG1, kappa, V domains shown, humanized antibody of F3.121.4, VL3+VH2, murine IgG1 constant regions) VH: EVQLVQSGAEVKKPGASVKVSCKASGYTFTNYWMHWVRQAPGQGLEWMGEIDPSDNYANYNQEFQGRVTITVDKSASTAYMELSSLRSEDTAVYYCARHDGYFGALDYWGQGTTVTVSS VL: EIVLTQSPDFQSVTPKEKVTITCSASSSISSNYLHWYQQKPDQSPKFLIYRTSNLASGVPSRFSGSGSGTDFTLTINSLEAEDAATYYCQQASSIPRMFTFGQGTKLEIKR	OD450	0.05
F3.121.4-L1H2 (antibody, mouse IgG1, kappa, V domains shown, humanized antibody of F3.121.4, VL1+VH2, murine IgG1 constant regions) VH: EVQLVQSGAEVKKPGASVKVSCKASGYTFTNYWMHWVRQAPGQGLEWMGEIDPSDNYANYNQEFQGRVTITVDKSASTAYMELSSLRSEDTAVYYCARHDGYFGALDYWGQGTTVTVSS VL: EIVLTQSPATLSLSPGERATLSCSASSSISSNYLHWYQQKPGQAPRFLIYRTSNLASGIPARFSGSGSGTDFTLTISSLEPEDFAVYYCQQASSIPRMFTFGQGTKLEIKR	OD450	0.05

Then there is this binder:
Sample F3.121.4-L2H2 (antibody, mouse IgG1, kappa, V domains shown, humanized antibody of F3.121.4, VL2+VH2, murine IgG1 constant regions) VH: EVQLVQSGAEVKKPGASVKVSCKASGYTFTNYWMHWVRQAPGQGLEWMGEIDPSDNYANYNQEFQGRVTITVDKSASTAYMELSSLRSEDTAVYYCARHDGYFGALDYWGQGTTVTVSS VL: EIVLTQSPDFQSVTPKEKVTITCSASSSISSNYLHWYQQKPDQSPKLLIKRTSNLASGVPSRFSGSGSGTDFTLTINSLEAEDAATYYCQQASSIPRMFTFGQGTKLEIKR ; OD450 at 0.001 nM observed: 0.05

Origin of values: patent US20250042994A1
